system-under-test: Beta-1 adrenergic receptor (Homo sapiens) (UniProt P08588);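 further: anesthetized dogs dosed intravenously, sympatholytic action measured as inhibition of the chronotropic response to isoproterenol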
Sequence (P08588 whole entry, looked up): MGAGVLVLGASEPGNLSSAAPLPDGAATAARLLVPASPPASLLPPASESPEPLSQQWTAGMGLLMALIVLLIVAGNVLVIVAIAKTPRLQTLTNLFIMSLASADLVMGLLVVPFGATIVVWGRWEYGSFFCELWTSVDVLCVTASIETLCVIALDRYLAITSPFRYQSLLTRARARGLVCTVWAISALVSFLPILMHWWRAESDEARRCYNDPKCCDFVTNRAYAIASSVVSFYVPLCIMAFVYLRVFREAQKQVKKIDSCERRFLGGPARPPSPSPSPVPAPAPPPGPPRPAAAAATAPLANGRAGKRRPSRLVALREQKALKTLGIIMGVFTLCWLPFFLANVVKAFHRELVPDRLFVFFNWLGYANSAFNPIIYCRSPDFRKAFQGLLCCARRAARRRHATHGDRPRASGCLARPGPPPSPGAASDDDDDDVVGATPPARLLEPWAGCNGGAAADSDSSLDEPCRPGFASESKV
conditions-used: Canis lupus familiaris
Description: In vivo sympatholytic activity (isoproterenol-induced chronotropy) at beta 1-adrenergic receptor in anesthetized dog, iv
Each entry below carries its reported log10 of DR10.
Reminder: these figures are log10 of reported DR10, in mg/kg before transformation.

See these solved cases before continuing.
{"columns": ["molecule", "system-under-test", "log10 of DR10"],
 "data": [
  ["COc1ccc(C(O)CNC(C)CCc2ccc3c(c2)OCO3)cc1C(N)=O.Cl (stereo not given)", "Beta-1 adrenergic receptor (Homo sapiens) (UniProt P08588)", -0.64],
  ["CC(CCc1ccc2c(c1)OCO2)NCC(O)c1ccc(O)c(C(N)=O)c1.Cl (stereo not given) [MEDROXALOL HYDROCHLORIDE]", "Beta-1 adrenergic receptor (Homo sapiens) (UniProt P08588)", -0.08],
  ["CC(C)NC(=O)c1cc(C(O)CNC(C)CCc2ccc3c(c2)OCO3)ccc1O.Cl (stereo not given)", "Beta-1 adrenergic receptor (Homo sapiens) (UniProt P08588)", 1.35],
  ["CCNC(=O)c1cc(C(O)CNC(C)CCc2ccc3c(c2)OCO3)ccc1O.Cl (stereo not given)", "Beta-1 adrenergic receptor (Homo sapiens) (UniProt P08588)", 1.07],
  ["CC(Cc1ccc2c(c1)OCO2)NCC(O)c1ccc(O)c(C(N)=O)c1 (stereo not given)", "Beta-1 adrenergic receptor (Homo sapiens) (UniProt P08588)", 0.83],
  ["CC(C)(CCc1ccc2c(c1)OCO2)NCC(O)c1ccc(O)c(C(N)=O)c1.Cl (stereo not given)", "Beta-1 adrenergic receptor (Homo sapiens) (UniProt P08588)", 0.32],
  ["COC(=O)c1cc(C(O)CNC(C)CCc2ccc3c(c2)OCO3)ccc1O.Cl (stereo not given)", "Beta-1 adrenergic receptor (Homo sapiens) (UniProt P08588)", 0.34],
  ["CNC(=O)c1cc(C(O)CNC(C)CCc2ccc3c(c2)OCO3)ccc1O.Cl (stereo not given)", "Beta-1 adrenergic receptor (Homo sapiens) (UniProt P08588)", 0.94]
]}

Enquiry: Using known records, supply log10 of DR10 for Cc1ccccc1N1CCN(CC(O)c2ccc(O)c(C(N)=O)c2)CC1.Cl.Cl (stereo not given)
Return: 1.18

====

system-under-test: Adrenergic receptor alpha-1 (Homo sapiens, UniProt P35348+P25100+P35368)
Sequence (P35348 whole entry): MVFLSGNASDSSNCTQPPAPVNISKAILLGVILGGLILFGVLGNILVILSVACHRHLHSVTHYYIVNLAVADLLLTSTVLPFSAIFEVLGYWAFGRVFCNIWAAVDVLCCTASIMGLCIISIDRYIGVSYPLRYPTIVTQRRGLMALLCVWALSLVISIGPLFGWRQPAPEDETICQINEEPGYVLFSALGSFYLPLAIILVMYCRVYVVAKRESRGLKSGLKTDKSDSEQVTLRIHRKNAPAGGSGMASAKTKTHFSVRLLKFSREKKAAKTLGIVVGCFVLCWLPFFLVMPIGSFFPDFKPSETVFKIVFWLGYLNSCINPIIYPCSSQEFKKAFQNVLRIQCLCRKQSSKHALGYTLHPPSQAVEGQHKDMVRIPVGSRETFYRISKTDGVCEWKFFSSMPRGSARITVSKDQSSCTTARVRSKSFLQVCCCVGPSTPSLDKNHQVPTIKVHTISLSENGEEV
Sequence (P25100 whole entry): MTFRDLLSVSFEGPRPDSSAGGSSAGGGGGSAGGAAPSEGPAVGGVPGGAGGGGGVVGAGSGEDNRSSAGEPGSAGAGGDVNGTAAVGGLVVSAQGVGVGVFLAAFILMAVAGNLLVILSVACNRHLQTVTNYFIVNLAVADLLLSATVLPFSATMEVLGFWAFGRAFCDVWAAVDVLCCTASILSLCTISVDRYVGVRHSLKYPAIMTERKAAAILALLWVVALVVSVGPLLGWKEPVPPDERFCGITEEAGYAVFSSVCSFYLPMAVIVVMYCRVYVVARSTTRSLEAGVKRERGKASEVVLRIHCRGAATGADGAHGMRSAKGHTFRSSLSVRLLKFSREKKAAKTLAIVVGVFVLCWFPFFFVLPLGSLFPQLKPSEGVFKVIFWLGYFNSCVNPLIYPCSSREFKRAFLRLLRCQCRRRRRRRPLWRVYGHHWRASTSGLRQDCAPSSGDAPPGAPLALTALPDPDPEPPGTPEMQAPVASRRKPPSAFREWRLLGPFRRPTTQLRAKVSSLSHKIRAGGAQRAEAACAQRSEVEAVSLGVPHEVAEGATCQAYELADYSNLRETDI
Sequence (P35368 whole entry): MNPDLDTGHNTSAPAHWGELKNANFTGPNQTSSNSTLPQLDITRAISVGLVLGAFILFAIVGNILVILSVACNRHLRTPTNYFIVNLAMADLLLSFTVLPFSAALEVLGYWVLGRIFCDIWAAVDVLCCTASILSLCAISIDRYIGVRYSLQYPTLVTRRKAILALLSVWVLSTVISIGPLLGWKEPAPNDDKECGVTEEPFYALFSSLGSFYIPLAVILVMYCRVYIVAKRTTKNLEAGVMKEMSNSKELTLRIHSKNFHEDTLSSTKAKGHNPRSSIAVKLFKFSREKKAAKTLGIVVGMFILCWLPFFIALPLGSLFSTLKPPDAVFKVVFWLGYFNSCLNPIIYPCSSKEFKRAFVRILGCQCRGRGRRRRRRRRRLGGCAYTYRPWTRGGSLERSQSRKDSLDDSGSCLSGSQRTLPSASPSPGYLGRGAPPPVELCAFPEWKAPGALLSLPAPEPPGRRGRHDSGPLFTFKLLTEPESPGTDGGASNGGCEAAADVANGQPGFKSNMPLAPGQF
protocol-description: In vitro blocking activity against alpha adrenergic receptor, isolated from rabbit aortic strip
Type: protein assay, Oryctolagus cuniculus
quantity-measured: pA2
Give the value as a plain number.

See these solved cases before continuing.
{"columns": ["compound", "pA2"],
 "data": [
  ["COc1ccc(N2CCN(CC(O)c3ccc(O)c(C(N)=O)c3)CC2)cc1.Cl.Cl (stereo unspecified)", 6.13],
  ["Cl.NC(=O)c1cc(C(O)CN2CCN(c3ccccc3)CC2)ccc1O (stereo unspecified)", 7.04],
  ["COc1ccc(C(O)CN2CCN(c3ccccc3)CC2)cc1C(N)=O.Cl (stereo unspecified)", 6.54],
  ["CNC(=O)c1cc(C(O)CNC(C)CCc2ccc3c(c2)OCO3)ccc1O.Cl (stereo unspecified)", 5.9]
]}

Enquiry: Using known records, supply pA2 for Cl.NC(=O)c1cc(C(O)CN2CCC(n3c(O)nc4ccccc43)CC2)ccc1O (stereo unspecified)
Return: 6.7

Enquiry: Using known records, supply pA2 for CC(C)(CCc1ccc2c(c1)OCO2)NCC(O)c1ccc(O)c(C(N)=O)c1.Cl (stereo unspecified)
Return: 5.31

Enquiry: Using known records, supply pA2 for COC(=O)c1cc(C(O)CN2CCN(c3ccccc3OC)CC2)ccc1OC.Cl (stereo unspecified)
Return: 7

Enquiry: Using known records, supply pA2 for NC(=O)c1cc(C(O)CN2CCN(c3ccc(Cl)cc3)CC2)ccc1O (stereo unspecified)
Return: 6.87

Enquiry: Using known records, supply pA2 for Cc1ccccc1N1CCN(CC(O)c2ccc(O)c(C(=O)NCC(C)(C)C)c2)CC1.Cl (stereo unspecified)
Return: 7.21

Enquiry: Using known records, supply pA2 for COC(=O)c1cc(C(O)CNCC2COc3ccccc3O2)ccc1O.Cl (stereo unspecified)
Return: 6.21

Enquiry: Using known records, supply pA2 for CC(Cc1ccc2c(c1)OCO2)NCC(O)c1ccc(O)c(C(N)=O)c1 (stereo unspecified)
Return: 6.04

Enquiry: Using known records, supply pA2 for CCNC(=O)c1cc(C(O)CNC(C)CCc2ccc3c(c2)OCO3)ccc1O.Cl (stereo unspecified)
Return: 5.86

Enquiry: Using known records, supply pA2 for CC(CCc1ccc2c(c1)OCO2)NCC(O)c1ccc(O)c(C(=O)NCC(C)(C)C)c1.Cl (stereo unspecified)
Return: 6.05

Where these numbers come from: ChEMBL document CHEMBL1121801
